Consider the following molecules; for each one, report its ENDOHDL Test 1.
- subject_of_test: murine SR-BI (Mus musculus, UniProt Q61009)
- Construct: expressed in transfected cells; host or cells: ldlA-7 (LDL receptor deficient Chinese hamster ovary cells)
- Sequence (Q61009 whole entry): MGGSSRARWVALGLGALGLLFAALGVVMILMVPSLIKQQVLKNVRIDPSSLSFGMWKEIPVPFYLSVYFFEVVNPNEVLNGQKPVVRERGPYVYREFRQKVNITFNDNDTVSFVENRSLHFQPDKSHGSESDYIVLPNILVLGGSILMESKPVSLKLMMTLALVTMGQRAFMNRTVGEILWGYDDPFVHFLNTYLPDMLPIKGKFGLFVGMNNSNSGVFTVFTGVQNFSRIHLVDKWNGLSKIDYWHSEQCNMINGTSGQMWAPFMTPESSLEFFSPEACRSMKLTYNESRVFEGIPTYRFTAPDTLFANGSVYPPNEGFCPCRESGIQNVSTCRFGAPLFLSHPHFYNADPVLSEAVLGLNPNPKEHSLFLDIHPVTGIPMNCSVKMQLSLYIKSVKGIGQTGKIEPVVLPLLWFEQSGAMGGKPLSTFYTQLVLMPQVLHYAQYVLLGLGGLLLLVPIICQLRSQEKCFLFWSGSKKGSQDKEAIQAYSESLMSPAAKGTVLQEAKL
- run_description: Uptake of DiI from DiI-HDL by ldlA[mSR-BI] cells (high throughput screen and concentration dependence)
- Format: cell-based
- assay_setup: Test 1
No unit in the answer, only the number.

Q) Fill in reported ENDOHDL Test 1 for this entry: `COc1ccc(N/N=C2\C(=O)ON=C2c2ccc(OC)cc2)cc1`
A) 0.61

Q) Fill in reported ENDOHDL Test 1 for this entry: `C=CCc1c(C)nc(-c2ccccc2)nc1Nc1ccc([N+](=O)[O-])cc1`
A) 0.58

Q) Fill in reported ENDOHDL Test 1 for this entry: CCCCOCCC1CCC/C1=N\NC(N)=S (stereo not drawn) [MIT 9952-61]
A) 0.7

Q) Fill in reported ENDOHDL Test 1 for this entry: FC(F)(F)c1cccc(N2N=C(/C=C/c3ccccc3)CC2c2ccccc2)c1 (stereo not drawn)
A) 0.63

Q) Fill in reported ENDOHDL Test 1 for this entry: `Cc1cccc(N2C(=O)CN(C3CCOCC3)C2=O)c1`
A) 1.34

Q) Fill in reported ENDOHDL Test 1 for this entry: CCN(CC(O)COc1ccccc1C(C)=O)S(=O)(=O)O.[Na+] (stereo not drawn)
A) 1.28

Q) Fill in reported ENDOHDL Test 1 for this entry: O=C(NC(NC(=S)Nc1cccc2ccccc12)C(Cl)(Cl)Cl)c1cccc([N+](=O)[O-])c1 (stereo not drawn)
A) 0.56

Q) Fill in reported ENDOHDL Test 1 for this entry: `CC(=O)OCc1c(C)cc(C)c(/C=N/Nc2ccc([N+](=O)[O-])cc2)c1C`
A) 0.51

Q) Fill in reported ENDOHDL Test 1 for this entry: `Cc1ccc(NC(=O)c2ccc([N+](=O)[O-])c(C)c2)cc1Cl`
A) 0.6

Q) Fill in reported ENDOHDL Test 1 for this entry: `O=C(Nc1ccc(Cl)c([N+](=O)[O-])c1)c1cccc(C(=O)Nc2ccc(Cl)c([N+](=O)[O-])c2)c1`
A) 0.55

Q) Fill in reported ENDOHDL Test 1 for this entry: `O=C(CC1=CCCCC1)Nc1cc([N+](=O)[O-])ccc1Cl`
A) 1.32

Q) Fill in reported ENDOHDL Test 1 for this entry: `CC1(C)CC(=O)C(=Cc2c(Cl)ccc3ccccc23)C(=O)C1`
A) 1.26

Q) Fill in reported ENDOHDL Test 1 for this entry: `C#CCOC(=O)CCCC(=O)Nc1ccccc1[N+](=O)[O-]`
A) 1.27

Q) Fill in reported ENDOHDL Test 1 for this entry: `CCOC(=O)c1c(NC(=O)c2ccccc2C)sc2c1CCCC2`
A) 0.64

Q) Fill in reported ENDOHDL Test 1 for this entry: `O=C(N/N=C\c1ccccc1O)c1ccc(O)cc1`
A) 0.54

Q) Fill in reported ENDOHDL Test 1 for this entry: `Cc1cc(C(=O)N/C=C\c2c(Cl)ccc3ccccc23)[nH]n1`
A) 0.34

Q) Fill in reported ENDOHDL Test 1 for this entry: `Clc1ccc(-c2nc3ccc4ccccc4c3c3c2CCCC3)cc1`
A) 0.57

Q) Fill in reported ENDOHDL Test 1 for this entry: `COc1ccc(NC(=O)c2cc([N+](=O)[O-])c(C)c([N+](=O)[O-])c2)cc1Cl`
A) 0.5

Data provenance: patent US20040171073A1
